- measuredTarget: CYP3A4 (Homo sapiens)
- assayProcedure: Inhibition of CYP3A4 (unknown origin) at 10 uM
- Format: ADME
So I've got a bunch of molecules here, and I need their inhibition at 10 µM values.
The reply should contain only the number, in %.

Fill in inhibition at 10 µM for record `Cn1c(CNc2cccc(C(=O)NCc3ccccc3Cl)c2)nnc1-c1ccncc1`
54

Fill in inhibition at 10 µM for record `COc1cccc(NCc2nc(-c3ccncc3)n[nH]2)c1`
92

Fill in inhibition at 10 µM for record `CC(=O)Nc1cc(-c2nnc(CNc3cccc(C(=O)NCc4ccccc4C(F)(F)F)c3)n2C)ccn1`
56

Fill in inhibition at 10 µM for record `CCCn1c(CNc2cccc(C(=O)NCc3c(F)cccc3F)c2)nnc1-c1ccncn1`
51

Fill in inhibition at 10 µM for record `Clc1ccc(SCc2nc(-c3ccncc3)n[nH]2)cc1`
100

Fill in inhibition at 10 µM for record `O=C(NCc1ccccc1)c1cccc(NCc2csc(-c3ccncc3)n2)c1`
87

Fill in inhibition at 10 µM for record `O=C(NCc1ccccc1)c1cccc(NCc2nc(-c3ccncc3)cs2)c1`
92

Fill in inhibition at 10 µM for record `CCCn1c(CNc2cccc(C(=O)NCc3ccccc3C(F)(F)F)c2)nnc1-c1ccncn1`
81

Fill in inhibition at 10 µM for record `Clc1ccc(CSc2nc(-c3ccncc3)n[nH]2)cc1`
97

Fill in inhibition at 10 µM for record `Cn1c(CNc2cccc(C(=O)NCc3ccccc3)c2)nnc1-c1ccncc1`
26

Fill in inhibition at 10 µM for record `O=C(NCc1ccccc1)c1cccc(NCc2cc(-c3ccncc3)n[nH]2)c1`
99

Fill in inhibition at 10 µM for record `O=C(NCc1ccccc1C(F)(F)F)c1cccc(NCc2nnc(-c3ccncc3)n2CCO)c1`
79

Fill in inhibition at 10 µM for record `O=C(NCc1ccccc1)c1cccc(NCc2nnc(-c3ccncc3)n2Cc2ccccc2)c1`
87

Fill in inhibition at 10 µM for record `COc1ccccc1CNC(=O)c1cccc(NCc2nnc(-c3ccncc3)[nH]2)c1`
95

Fill in inhibition at 10 µM for record `O=C(Nc1nc(-c2ccncc2)n[nH]1)c1ccc(Cl)cc1`
27

Fill in inhibition at 10 µM for record `CCn1c(CNc2cccc(C(=O)NCc3ccccc3)c2)nnc1-c1ccncc1`
50

Fill in inhibition at 10 µM for record `Cc1c(-c2ccncc2)n[nH]c1CNc1cccc(C(=O)NCc2ccccc2)c1`
96

Fill in inhibition at 10 µM for record `Clc1cccc(OCc2n[nH]c(-c3ccncc3)n2)c1`
86

Fill in inhibition at 10 µM for record `O=C(NCc1ccccc1)c1cccc(NCc2cc(-c3ccncc3)c[nH]2)c1`
100

Fill in inhibition at 10 µM for record `Cn1c(CNc2cccc(C(=O)NCc3c(F)cccc3F)c2)nnc1-c1ccnc(NCc2ccccc2)c1`
47

###

- measuredTarget: Rhodopsin kinase GRK1 (Homo sapiens, UniProt Q15835)
- Sequence (Q15835 whole entry): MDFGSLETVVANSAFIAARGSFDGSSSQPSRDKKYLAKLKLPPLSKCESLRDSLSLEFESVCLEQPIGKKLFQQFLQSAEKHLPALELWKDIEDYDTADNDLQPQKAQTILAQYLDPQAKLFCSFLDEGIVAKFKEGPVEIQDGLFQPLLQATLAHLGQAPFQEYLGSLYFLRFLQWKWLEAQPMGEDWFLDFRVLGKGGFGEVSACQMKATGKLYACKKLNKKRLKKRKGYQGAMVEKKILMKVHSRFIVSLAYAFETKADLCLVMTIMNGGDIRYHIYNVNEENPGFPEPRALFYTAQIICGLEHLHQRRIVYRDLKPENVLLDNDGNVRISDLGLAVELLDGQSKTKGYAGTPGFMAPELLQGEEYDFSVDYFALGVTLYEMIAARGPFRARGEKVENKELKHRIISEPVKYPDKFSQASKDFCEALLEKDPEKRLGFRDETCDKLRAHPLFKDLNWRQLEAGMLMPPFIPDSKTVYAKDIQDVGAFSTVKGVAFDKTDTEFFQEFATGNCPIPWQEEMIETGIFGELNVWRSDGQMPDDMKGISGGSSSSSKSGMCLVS
- assayProcedure: Inhibition of recombinant human GST-tagged GRK1 expressed in baculovirus infected fall armyworm Sf9 cells after 60 mins by LanthaScreen eu kinase binding assay
So I've got a bunch of compounds here, and I need their IC50 values.

Report value only: IC50, Rhodopsin kinase GRK1 (Homo sapiens, UniProt Q15835), `Cn1c(CNc2cccc(C(=O)NCc3ccccc3C(F)(F)F)c2)nnc1-c1ccncc1`
3.1 µM

Report value only: IC50, Rhodopsin kinase GRK1 (Homo sapiens, UniProt Q15835), `CNC(=O)c1cccc(NCc2nc(-c3ccncc3)n[nH]2)c1`
> 30 µM

Report value only: IC50, Rhodopsin kinase GRK1 (Homo sapiens, UniProt Q15835), `O=C(NCc1ccccc1)c1cccc(NCc2nc(-c3ccncc3)n[nH]2)c1`
> 30 µM

Report value only: IC50, Rhodopsin kinase GRK1 (Homo sapiens, UniProt Q15835), `CCn1c(CNc2cccc(C(=O)NCc3ccccc3)c2)nnc1-c1ccncc1`
> 30 µM

Report value only: IC50, Rhodopsin kinase GRK1 (Homo sapiens, UniProt Q15835), `O=C(NCc1ccccc1C(F)(F)F)c1cccc(NCc2nnc3n2CCOc2cnccc2-3)c1`
0.27 µM

Report value only: IC50, Rhodopsin kinase GRK1 (Homo sapiens, UniProt Q15835), `Cc1c(-c2ccncc2)n[nH]c1CNc1cccc(C(=O)NCc2ccccc2)c1`
> 30 µM

###

So I've got a bunch of compounds here, and I need their pIC50 values.
- measuredTarget: Protein kinase C alpha type (Homo sapiens, UniProt P17252)
pIC50: −log10 of the molar value.

Fill in pIC50 for record `Clc1ccc(NCc2nc(-c3ccncc3)n[nH]2)cc1`
< 5.00

Fill in pIC50 for record `COc1ccc(NCc2nc(-c3ccncc3)n[nH]2)cc1`
< 5.00

Fill in pIC50 for record `O=C(NCc1ccccc1)c1cccc(NCc2nc(-c3ccncc3)no2)c1`
< 5.00

Fill in pIC50 for record `COc1ccccc1CNC(=O)c1cccc(NCc2nnc(-c3ccncc3)n2C)c1`
< 5.00

Fill in pIC50 for record `Cc1cc(-c2n[nH]c(CNc3ccc(Cl)cc3)n2)ccn1`
< 5.00

Fill in pIC50 for record `O=C(CNc1cccc(OCc2ccccc2)c1)N/N=C1\CCCc2cnccc21`
< 5.00

Fill in pIC50 for record `CN(Cc1ccccc1)C(=O)c1cccc(NCc2nc(-c3ccncc3)n[nH]2)c1`
< 5.00

Fill in pIC50 for record `Cn1c(CNc2cccc(C(=O)NCc3ccc(C(F)(F)F)cc3)c2)nnc1-c1ccncc1`
< 5.00

Fill in pIC50 for record `O=C(NCc1ccccc1)c1cccc(NCc2csc(-c3ccncc3)n2)c1`
< 5.00

Fill in pIC50 for record `NS(=O)(=O)c1ccc(NCc2nc(-c3ccncc3)n[nH]2)cc1`
< 5.00

Fill in pIC50 for record `c1ccc(COc2cccc(NCc3nc(-c4ccncc4)n[nH]3)c2)cc1`
< 5.00

Fill in pIC50 for record `Clc1ccccc1NCc1nc(-c2ccncc2)n[nH]1`
< 5.00

###

- measuredTarget: CYP3A4 (Homo sapiens, UniProt P08684)
- Sequence (P08684 whole entry): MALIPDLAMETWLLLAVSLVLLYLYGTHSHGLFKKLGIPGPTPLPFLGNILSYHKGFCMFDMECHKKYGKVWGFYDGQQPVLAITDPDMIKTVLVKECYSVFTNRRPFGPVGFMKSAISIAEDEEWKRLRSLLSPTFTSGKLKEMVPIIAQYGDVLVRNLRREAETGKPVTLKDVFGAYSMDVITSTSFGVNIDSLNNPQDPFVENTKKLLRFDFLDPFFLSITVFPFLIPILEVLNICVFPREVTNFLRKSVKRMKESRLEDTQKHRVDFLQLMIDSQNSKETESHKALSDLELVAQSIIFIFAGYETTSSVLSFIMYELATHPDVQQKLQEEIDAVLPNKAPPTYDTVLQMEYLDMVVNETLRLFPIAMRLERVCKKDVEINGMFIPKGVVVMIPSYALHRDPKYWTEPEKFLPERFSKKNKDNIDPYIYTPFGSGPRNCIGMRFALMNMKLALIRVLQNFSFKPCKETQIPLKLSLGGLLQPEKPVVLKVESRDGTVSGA
- assayProcedure: Inhibition of CYP3A4 (unknown origin) at 10 uM
- Type: ADME
So I've got a bunch of compounds here, and I need their inhibition at 10 µM values.
The reply should contain only the number, in %.

Fill in inhibition at 10 µM for record `O=C(NCc1ccccc1)c1cccc(NCc2nc(-c3ccncc3CO)n[nH]2)c1`
100

Fill in inhibition at 10 µM for record `c1ccc(Oc2cccc(NCc3nc(-c4ccncc4)n[nH]3)c2)cc1`
100

Fill in inhibition at 10 µM for record `Clc1cccc(NCc2nc(-c3ccncc3)n[nH]2)c1`
93

Fill in inhibition at 10 µM for record `CN(Cc1ccccc1)C(=O)c1cccc(NCc2nc(-c3ccncc3)n[nH]2)c1`
79

Fill in inhibition at 10 µM for record `O=C(NCc1ccccc1)c1cccc(NCc2nc(-c3ccncc3)n[nH]2)c1`
91

Fill in inhibition at 10 µM for record `c1ccc(NCc2nc(-c3ccncc3)n[nH]2)cc1`
94

Fill in inhibition at 10 µM for record `OCCc1cnccc1-c1n[nH]c(CNc2ccc(Cl)cc2)n1`
100

Fill in inhibition at 10 µM for record `O=C(NCc1ccccc1)c1cccc(NCc2cc(-c3ccncc3)on2)c1`
84

Fill in inhibition at 10 µM for record `O=S(=O)(Cc1ccccc1)c1cccc(NCc2nc(-c3ccncc3)n[nH]2)c1`
86

Fill in inhibition at 10 µM for record `O=C(NCc1ccccc1C(F)(F)F)c1cccc(NCc2nnc3n2CCOc2cnccc2-3)c1`
83

Fill in inhibition at 10 µM for record `O=C(NCc1ccccc1)c1cccc(NCc2ccn(-c3ccncc3)c2)c1`
95

Fill in inhibition at 10 µM for record `O=C(NCc1ccccc1)c1cccc(NCc2nc(-c3ccncc3)c[nH]2)c1`
100

Fill in inhibition at 10 µM for record `Clc1ccc(NCc2nc(-c3ccncc3)n[nH]2)cc1`
97

###

- measuredTarget: Rho-associated protein kinase 2 (Homo sapiens, UniProt O75116)
- Sequence (O75116 whole entry, the tested form may be a part): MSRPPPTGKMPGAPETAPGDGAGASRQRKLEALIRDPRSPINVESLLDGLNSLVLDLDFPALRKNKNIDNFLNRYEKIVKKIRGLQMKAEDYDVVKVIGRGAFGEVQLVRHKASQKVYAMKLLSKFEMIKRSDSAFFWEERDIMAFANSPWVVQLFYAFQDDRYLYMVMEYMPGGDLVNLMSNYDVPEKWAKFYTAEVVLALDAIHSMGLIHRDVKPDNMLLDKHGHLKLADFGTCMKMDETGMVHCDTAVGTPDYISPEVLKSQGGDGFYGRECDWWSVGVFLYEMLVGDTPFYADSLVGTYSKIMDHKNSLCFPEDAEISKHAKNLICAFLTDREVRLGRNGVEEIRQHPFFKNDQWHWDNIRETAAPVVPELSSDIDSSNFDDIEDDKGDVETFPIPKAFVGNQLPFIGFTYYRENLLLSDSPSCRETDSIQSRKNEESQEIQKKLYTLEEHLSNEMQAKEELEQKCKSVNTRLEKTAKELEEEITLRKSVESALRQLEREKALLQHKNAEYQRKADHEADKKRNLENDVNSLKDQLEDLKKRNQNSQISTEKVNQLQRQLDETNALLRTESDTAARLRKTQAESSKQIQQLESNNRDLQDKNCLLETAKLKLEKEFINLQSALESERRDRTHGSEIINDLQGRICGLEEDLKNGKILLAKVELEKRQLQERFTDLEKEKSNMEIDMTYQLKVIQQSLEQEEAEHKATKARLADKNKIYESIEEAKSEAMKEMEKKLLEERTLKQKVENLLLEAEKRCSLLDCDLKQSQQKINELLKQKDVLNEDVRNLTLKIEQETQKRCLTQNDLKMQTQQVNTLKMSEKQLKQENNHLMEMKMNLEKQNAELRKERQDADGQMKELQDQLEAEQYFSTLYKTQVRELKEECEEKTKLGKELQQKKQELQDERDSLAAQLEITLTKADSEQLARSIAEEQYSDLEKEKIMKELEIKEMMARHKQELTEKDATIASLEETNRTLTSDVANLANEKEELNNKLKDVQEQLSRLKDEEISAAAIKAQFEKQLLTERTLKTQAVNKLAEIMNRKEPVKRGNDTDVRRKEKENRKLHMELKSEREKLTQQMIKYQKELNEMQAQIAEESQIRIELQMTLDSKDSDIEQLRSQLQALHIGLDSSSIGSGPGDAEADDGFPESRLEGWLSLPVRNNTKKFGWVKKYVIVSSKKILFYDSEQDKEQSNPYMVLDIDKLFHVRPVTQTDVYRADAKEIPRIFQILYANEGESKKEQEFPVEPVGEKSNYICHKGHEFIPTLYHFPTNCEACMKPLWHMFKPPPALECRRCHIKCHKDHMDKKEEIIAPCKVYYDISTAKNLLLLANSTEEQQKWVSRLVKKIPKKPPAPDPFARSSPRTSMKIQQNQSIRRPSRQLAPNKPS
- assayProcedure: Inhibition of recombinant human N-terminal GST-tagged ROCK2 catalytic domain (1 to 553 residues) expressed in baculovirus expression system using STK 2-biotin as substrate measured after 60 mins by HTRF/TR-FRET assay
pIC50: −log10 of the molar value.
So I've got a bunch of molecules here, and I need their pIC50 values.

Fill in pIC50 for record `OCCc1cnccc1-c1n[nH]c(CNc2ccc(Cl)cc2)n1`
< 5.00

Fill in pIC50 for record `c1ccc(Oc2cccc(NCc3nc(-c4ccncc4)n[nH]3)c2)cc1`
< 5.00

Fill in pIC50 for record `O=C(CNc1cccc(OCc2ccccc2)c1)N/N=C1\CCCc2cnccc21`
< 5.00

###

- measuredTarget: Rho-associated protein kinase 2 (Homo sapiens)
- assayProcedure: Inhibition of recombinant human N-terminal GST-tagged ROCK2 catalytic domain (1 to 553 residues) expressed in baculovirus expression system using STK 2-biotin as substrate measured after 60 mins by HTRF/TR-FRET assay
Field 'label' (enum: True / False). Set to True when IC50 is strictly under 500 nM; else False.

For this compound, is IC50 lower than 500 nM? `CCCn1c(CNc2cccc(C(=O)NCc3ccccc3C(F)(F)F)c2)nnc1-c1ccncn1`
True

For this compound, is IC50 lower than 500 nM? `COc1ccccc1CNC(=O)c1cccc(NCc2nnc(-c3ccncc3)n2C)c1`
False

For this compound, is IC50 lower than 500 nM? `Clc1ccc(SCc2nc(-c3ccncc3)n[nH]2)cc1`
False

For this compound, is IC50 lower than 500 nM? `O=C(NCCCc1ccccc1)c1cccc(NCc2nc(-c3ccncc3)n[nH]2)c1`
True

For this compound, is IC50 lower than 500 nM? `Cn1c(CNc2cccc(C(=O)NCc3ccccc3Cl)c2)nnc1-c1ccncc1`
False

For this compound, is IC50 lower than 500 nM? `CNc1cc(-c2nnc(CNc3cccc(C(=O)NCc4c(F)cccc4F)c3)n2C)ccn1`
False

For this compound, is IC50 lower than 500 nM? `O=C(CNc1cccc(Cl)c1)N/N=C/c1ccncc1`
True

For this compound, is IC50 lower than 500 nM? `Cn1c(CNc2cccc(C(=O)NCc3ccccc3C(F)(F)F)c2)nnc1-c1ccncc1`
False

For this compound, is IC50 lower than 500 nM? `O=C(NCc1ccccc1)c1cccc(NCc2[nH]nc(-c3ccncc3)c2-c2ccccc2)c1`
True

For this compound, is IC50 lower than 500 nM? `COc1ccccc1NCC(=O)N/N=C/c1ccncc1`
False

For this compound, is IC50 lower than 500 nM? `Cn1c(CNc2cccc(C(=O)NCc3c(F)cccc3F)c2)nnc1-c1ccnc(NCCCc2ccccc2)c1`
False

For this compound, is IC50 lower than 500 nM? `Clc1ccc(NCc2nc(-c3ccncc3)n[nH]2)cc1`
True

For this compound, is IC50 lower than 500 nM? `O=C(CNc1ccccc1)N/N=C/c1ccncc1`
False

For this compound, is IC50 lower than 500 nM? `Cn1c(CNc2cccc(C(=O)NCc3ccccc3)c2)nnc1-c1ccncc1`
False

For this compound, is IC50 lower than 500 nM? `Cn1c(CNc2cccc(C(=O)NCc3c(F)cccc3F)c2)nnc1-c1ccnc(NCc2ccccc2)c1`
False

For this compound, is IC50 lower than 500 nM? `Cn1c(CNc2cccc(C(=O)NCc3c(F)cccc3F)c2)nnc1-c1ccnc(NCCc2ccccc2)c1`
False

For this compound, is IC50 lower than 500 nM? `c1ccc(CNCc2nc(-c3ccncc3)n[nH]2)cc1`
False

For this compound, is IC50 lower than 500 nM? `CC(=O)Nc1cccc(NCc2nc(-c3ccncc3)n[nH]2)c1`
True

For this compound, is IC50 lower than 500 nM? `O=C(Cc1ccccc1)Nc1cc(NCc2nc(-c3ccncc3)n[nH]2)ccc1Cl`
True

For this compound, is IC50 lower than 500 nM? `O=C(NCc1ccccc1)c1cccc(NCc2cc(-c3ccncc3)no2)c1`
True

For this compound, is IC50 lower than 500 nM? `COc1ccccc1CNC(=O)c1cccc(NCc2nnc(-c3ccncc3)[nH]2)c1`
True

For this compound, is IC50 lower than 500 nM? `COCCn1c(CNc2cccc(C(=O)NCc3ccccc3)c2)nnc1-c1ccncc1`
True

For this compound, is IC50 lower than 500 nM? `O=C(NCc1ccccc1Cl)c1cccc(NCc2nnc(-c3ccncc3)[nH]2)c1`
True

For this compound, is IC50 lower than 500 nM? `CCOc1cccc(NCC(=O)N/N=C2\CCCc3cnccc32)c1`
False

For this compound, is IC50 lower than 500 nM? `O=C(NCCc1ccccc1)c1cccc(NCc2nc(-c3ccncc3)n[nH]2)c1`
True

For this compound, is IC50 lower than 500 nM? `c1ccc(CSc2cccc(NCc3nc(-c4ccncc4)n[nH]3)c2)cc1`
False

For this compound, is IC50 lower than 500 nM? `O=C(CNc1ccc(Cl)cc1)N/N=C/c1ccncc1`
False

For this compound, is IC50 lower than 500 nM? `O=C(NCc1ccccc1)c1cccc(NCc2cc(-c3ccncc3)c[nH]2)c1`
True

For this compound, is IC50 lower than 500 nM? `Cn1c(CNc2cccc(C(=O)NCc3cccc(C(F)(F)F)c3)c2)nnc1-c1ccncc1`
False

For this compound, is IC50 lower than 500 nM? `O=C(NCc1ccccc1)c1cccc(NCc2nc(-c3ccncc3)cs2)c1`
True

For this compound, is IC50 lower than 500 nM? `O=C(CNc1ccccc1Cl)N/N=C/c1ccncc1`
False

For this compound, is IC50 lower than 500 nM? `O=C(Nc1ccccc1)c1cccc(NCc2nc(-c3ccncc3)n[nH]2)c1`
True

For this compound, is IC50 lower than 500 nM? `O=S(=O)(Cc1ccccc1)c1cccc(NCc2nc(-c3ccncc3)n[nH]2)c1`
False

For this compound, is IC50 lower than 500 nM? `O=C(NCc1ccccc1)c1cccc(NCc2nc(-c3ccncc3CO)n[nH]2)c1`
False

For this compound, is IC50 lower than 500 nM? `c1ccc(COc2cccc(NCc3nc(-c4ccncc4)n[nH]3)c2)cc1`
False

For this compound, is IC50 lower than 500 nM? `COc1cccc(CNC(=O)c2cccc(NCc3nnc(-c4ccncc4)[nH]3)c2)c1`
True

For this compound, is IC50 lower than 500 nM? `O=C(NCc1ccccc1)c1cccc(NCc2nc(-c3ccncc3)no2)c1`
True

For this compound, is IC50 lower than 500 nM? `O=C(NCc1ccccc1)c1cccc(NCc2cc(-c3ccncc3)n[nH]2)c1`
True
